Target: T1, human claudin 6 (CLDN6) (human, UniProt P56747 1-220)
T1 construct: also called human CLDN6; hCLDN6
T1 sequence: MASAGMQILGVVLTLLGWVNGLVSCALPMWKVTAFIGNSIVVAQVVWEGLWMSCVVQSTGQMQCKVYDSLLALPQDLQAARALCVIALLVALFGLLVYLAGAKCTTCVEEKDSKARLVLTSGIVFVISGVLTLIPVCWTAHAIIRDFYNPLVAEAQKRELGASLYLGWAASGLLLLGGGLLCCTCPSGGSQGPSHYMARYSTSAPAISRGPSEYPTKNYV
Assay: flow cytometry, PA-1 cells; ratio to chBG87P
Description: For affinity determination, CLDN6 over-expressing HEK293T cells and cancer cell line PA-1 which express high levels of human CLDN6 were used to evaluate the binding activity of BG87P related engineering variants. […] EC50 values for dose-dependent binding to CLDN6 expressing cell lines were determined by fitting the dose-response data to the four-parameter logistic model with GraphPad Prism. […]
Emax ratio to BG87P by entry:
Keep the answer to the number alone.

Check out these entries, answers already filled in.
- Binder: "BG87P-27 (antibody, V domains shown) VH: QVQLVQSGAEVKKPGASVKVSCKASGYSFTDYHINWVRQAPGQRLEWMGWIYPGSGYTKYNEKFKGRVTLTRDTSASTAYMELSSLRSEDTAVYFCARSGIYHYVSSYYFDHWGKGTTVTVSS VL: DIQMTQSPSTLSASVGDRVTITCKASQDVGTAVAWYQQKPGKAPKLLIYWASTRHTGVPSRFSGSGSGTEFTLTISSLQPDDFATYYCQQYSSYTFGGGTKVEIK"
  Emax ratio to BG87P: 0.53
- Binder: "BG87P-22 (antibody, V domains shown) VH: QVQLVQSGAEVKKPGASVKVSCKASGYSFTDYHINWVRQAPGQRLEWMGWIYPGSGYTKYNEKFKGRVTITRDTSASTAYMELSSLRSEDTAVYFCARSGIYHYVSSYYFDHWGKGTTVTVSS VL: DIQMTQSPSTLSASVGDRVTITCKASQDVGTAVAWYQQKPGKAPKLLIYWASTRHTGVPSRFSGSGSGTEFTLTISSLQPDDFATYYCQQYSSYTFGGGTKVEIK"
  Emax ratio to BG87P: 0.54
- Binder: "BG87P-23 (antibody, V domains shown) VH: QIQLVQSGAEVKKPGASVKVSCKASGYSFTDYHINWVRQAPGQRLEWMGWIYPGSGYTKYNEKFKGRVTITRDTSASTAYMELSSLRSEDTAVYYCARSGIYHYVSSYYFDHWGKGTTVTVSS VL: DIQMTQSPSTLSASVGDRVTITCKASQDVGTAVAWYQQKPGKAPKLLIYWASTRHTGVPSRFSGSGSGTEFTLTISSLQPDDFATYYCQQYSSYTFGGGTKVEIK"
  Emax ratio to BG87P: 0.58
- Binder: "BG87P-21 (antibody, V domains shown, 2nd round humanized variant) VH: QVQLVQSGAEVKKPGASVKVSCKASGYSFTDYHINWVRQAPGQRLEWMGWIYPGSGYTKYNEKFKGRVTITRDTSASTAYMELSSLRSEDTAVYYCARSGIYHYVSSYYFDHWGKGTTVTVSS VL: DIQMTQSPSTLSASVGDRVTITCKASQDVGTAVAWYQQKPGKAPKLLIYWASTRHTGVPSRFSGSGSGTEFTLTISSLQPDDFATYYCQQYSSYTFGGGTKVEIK"
  Emax ratio to BG87P: 0.61

Would you mind telling me what Emax ratio to BG87P value was observed for BG87P-26 (antibody, V domains shown) VH: QIQLVQSGAEVKKPGASVKVSCKASGYSFTDYHINWVRQAPGQRLEWMGWIYPGSGYTKYNEKFKGRVTITRDTSASTAYMELSSLRSEDTAVYFCARSGIYHYVSSYYFDHWGKGTTVTVSS VL: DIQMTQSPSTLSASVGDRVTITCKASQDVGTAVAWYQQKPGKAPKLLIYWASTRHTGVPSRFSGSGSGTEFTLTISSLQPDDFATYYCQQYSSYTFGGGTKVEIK ?
0.54

Would you mind telling me what Emax ratio to BG87P value was observed for BG87P-z0 (antibody, V domains shown, Humanized, no back mutations; also called BG87P-20) VH: QVQLVQSGAEVKKPGASVKVSCKASGYTFTDYHINWVRQAPGQRLEWMGWIYPGSGYTKYNEKFKVRVTITRDTSASTAYMELSSLRSEDTAVYYCARSGIYHYVSSYYFDHWGKGTTVTVSS VL: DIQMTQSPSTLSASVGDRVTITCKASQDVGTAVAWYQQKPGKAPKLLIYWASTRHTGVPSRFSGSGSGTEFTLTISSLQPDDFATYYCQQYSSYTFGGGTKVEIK ?
0.43

Measured values drawn from patent US20240301061A1 for this set.
